- TEST_TARGET: APLNR (Homo sapiens, UniProt P35414)
- Sequence (P35414 whole entry): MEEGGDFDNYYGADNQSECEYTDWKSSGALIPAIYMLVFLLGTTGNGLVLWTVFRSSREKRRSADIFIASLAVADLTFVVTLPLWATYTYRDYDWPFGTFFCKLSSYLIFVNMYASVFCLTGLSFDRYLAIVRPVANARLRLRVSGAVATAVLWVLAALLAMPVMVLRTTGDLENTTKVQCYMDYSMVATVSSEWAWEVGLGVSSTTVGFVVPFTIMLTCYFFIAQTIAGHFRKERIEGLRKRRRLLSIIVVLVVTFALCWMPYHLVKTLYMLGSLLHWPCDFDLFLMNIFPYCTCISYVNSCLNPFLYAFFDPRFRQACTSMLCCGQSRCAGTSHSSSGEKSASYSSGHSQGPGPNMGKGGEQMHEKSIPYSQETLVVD
ATTRIBUTE_MEASURED: Kd (µM)

SAMPLE_SMILES | ATTRIBUTE_MEASURED | UNITS_SYMBOL | RECORDED_RESULT
CCOc1nc2cccc(C(=O)O)c2n1Cc1ccc(-c2ccccc2-c2nnn[nH]2)cc1 | Kd | µM | 1.72
